// provenance: ChEMBL document CHEMBL1201862

# Tested on: HOP-62
# assay-summary: NCI tumour cell line growth inhibition, 48 h
Active and inactive are the calls of the source. No stated cut-off is given here; in the data, active = GI50 up to about 1.1 µM and inactive = higher. Where a SMILES comes first, the peptide text is derived from it. The star is where a group is joined. Boc = CC(C)(C)OC(=O)*
Entries and their GI50

Past entries and their recorded results:
Cc1cc([N+](=O)[O-])ccc1Sc1c2ccccc2nc2cc(Cl)ccc12	73.5 µM (inactive)
N=C(N)N/N=C/c1c(Cl)nc2n1CCS2	38.1 µM (inactive)
CC(C)(C)OC(=O)NCC(=O)NCC(=O)NCC(=O)NCC(=O)O (Boc-GGGG-OH)	> 100 µM (inactive)
O=c1c2cc(Br)ccc2[nH]c(=S)n1-c1ccc(Br)cc1	67.6 µM (inactive)
CN(c1ccccc1Cl)S(=O)(=O)c1ccc([N+](=O)[O-])cc1	> 100 µM (inactive)
Ic1ccc2c(c1)N(c1ccccc1)c1cc([N-]c3ccc4nc5ccc(I)cc5[n+](-c5ccccc5)c4c3)ccc1N2	41.3 µM (inactive)
Cc1nc(SCC(=O)Nc2ccccc2)c2sc(=S)n(-c3ccccc3)c2n1	8.71 µM (inactive)
COc1cc(/C=C2\CC3C4CC=C5C[C@@H](O)CC[C@]5(C)C4CC[C@]3(C)\C2=N\O)cc(OC)c1OC (stereo not given in full)	19.6 µM (inactive)
O=C(NCCc1ccccc1)c1c(O)nc2ccccc2c1O	> 100 µM (inactive)

Read the next record carefully.
Qu. Field request: GI50 | item: `COC(=O)CCc1ccc2c(c1)CC1(C2)Cc2ccc(CCC(=O)OC)cc2C1`
Ans. 62.7 µM (inactive)

====

# Tested on: 786-0
# assay-summary: NCI tumour cell line growth inhibition, 48 h
Activity calls are given as the source filed them. Rule as the data show it: active = GI50 up to about 1.1 µM and inactive = higher.
Respond using exactly one of the listed classes: active, inactive

Qu. Answer briefly: the call reported for `OC[C@H](O)[C@@H](OCc1ccccc1)[C@H](NCc1ccccc1)c1cccs1` in this assay.
Ans. inactive

Qu. Answer briefly: the call reported for `COc1c(-c2ccc3c(c2)OCO3)oc2cc(O)cc(O)c2c1=O` in this assay.
Ans. inactive

Qu. Answer briefly: the call reported for N#CC12CC=C(c3ccccc3)N=C1NC(c1ccccc1)=CC2 (stereo unspecified) in this assay.
Ans. inactive

Qu. Answer briefly: the call reported for `COc1ccc(/C=C2\c3cc(OC)c(OC)cc3CCN2C(=O)c2ccccc2)cc1OC` in this assay.
Ans. inactive

Qu. Answer briefly: the call reported for `FC(F)(F)c1nc(-c2ccccc2Cl)[nH]c1C(F)(F)F` in this assay.
Ans. active

Qu. Answer briefly: the call reported for `CCOC(=O)/C=C(\C(=O)OCC)n1ccc(=O)n(Cc2cn(COCCOC(C)=O)nn2)c1=O` in this assay.
Ans. inactive

Qu. Answer briefly: the call reported for CCCCCCCCCCNC(=O)CCC(NC(=O)c1ccc(N(C)Cc2cnc3nc(N)nc(N)c3n2)cc1)C(=O)NCCCCCCCCCC (stereo unspecified) in this assay.
Ans. inactive

Qu. Answer briefly: the call reported for `Cc1nc2ccccc2c(=O)[nH]1` in this assay.
Ans. inactive

Qu. Answer briefly: the call reported for COC12C=CC(CC1)C(C)(C)C2OS(C)(=O)=O (stereo unspecified) in this assay.
Ans. inactive

Qu. Answer briefly: the call reported for `COC(c1ccc(C(C)(C)C)cc1)(c1ccc(C(C)(C)C)cc1)c1ccc(C(C)(C)C)cc1` in this assay.
Ans. inactive

Qu. Answer briefly: the call reported for `O=C(O)CSc1nnc(-c2ccc(O)cc2)[nH]1` in this assay.
Ans. inactive

Qu. Answer briefly: the call reported for `CCCC(=O)N(C)/N=N/c1ccc(C(=O)OCC)cc1` in this assay.
Ans. inactive

Qu. Answer briefly: the call reported for `O=C(Cc1ccc([N+](=O)[O-])cc1)OCC#CCOC(=O)Cc1ccc([N+](=O)[O-])cc1` in this assay.
Ans. inactive

Qu. Answer briefly: the call reported for O=C(O)C1=CN(c2ccncc2)C(c2ccco2)=CC1c1ccccc1[N+](=O)[O-] (stereo unspecified) in this assay.
Ans. inactive

Qu. Answer briefly: the call reported for O=[N+]([O-])c1ccc2nc(/C(=N/Nc3ccccc3)C(O)c3ccc(C(O)/C(=N\Nc4ccccc4)c4nc5ccc([N+](=O)[O-])cc5nc4O)cc3)cnc2c1 (stereo unspecified) in this assay.
Ans. inactive

Qu. Answer briefly: the call reported for `N#CCCC1(CCC#N)CCc2ccccc2C1=O` in this assay.
Ans. inactive
